- Test system: MDA-N
- assayInfo: NCI tumour cell line growth inhibition, 48 h
Where a SMILES comes first, the peptide text is derived from it. [ ]: non-standard residue; d: D form. The star is where a group is joined. Ac5c = NC1(C(=O)O)CCCC1; CH2Cl = ClC*
I'd be grateful if you could share measured TGI for these entries.

Solved entries:
N#Cc1ccsc1Nc1ccccc1[N+](=O)[O-] :: > 100 µM
COc1ccc(NS(=O)c2ccc(Cl)cc2)cc1 (configuration not stated) :: > 100 µM
CC1=C(C#N)C2C(=C(C)N1)C(N)=Nc1ccccc12 (configuration not stated) :: > 100 µM
C=C(C)C[C@H](Sc1nc2ccccc2s1)[C@H](C)O :: > 100 µM
NCC(=O)NC1(C(=O)O)CCCC1 (H-Gly-[Ac5c]-OH) :: > 100 µM
CC(=O)OCC1OC(NC(=S)CCSc2nc3ccccc3c(=O)n2-c2ccccc2)C(OC(C)=O)C(OC(C)=O)C1OC(C)=O (configuration not stated) :: > 100 µM
CN=c1oc2ccccc2cc1C(N)=O :: > 100 µM
O=[N+]([O-])c1ccc2nc3n(c2c1)C(c1c(F)cccc1F)SC3 (configuration not stated) :: > 100 µM
O=C(COc1ccc(OCC(=O)N2C(=O)CN(c3ccc(Cl)cc3)C2=S)cc1)N1C(=O)CN(c2ccc(Cl)cc2)C1=S :: 92.5 µM
CCCCCOC(=O)C(=O)Nc1n[nH]nc1C(N)=O :: > 100 µM

For every item in the list below, what is its measured TGI?
1. CC(=O)NC(CC(C)C)C(=O)NC(Cc1ccccc1)C(=O)CCl (stereo not drawn) (Ac-Leu-Phe-CH2Cl; configuration not given here)
2. O=Cc1ccc(-c2nccc3c2[nH]c2ccccc23)o1

1. 32.9 µM
2. > 100 µM
